tested on: MS2 coat protein; experiment: apparent KD of MS2 coat protein; designed switch direction (-1 OFF switch, 1 ON switch): -1; higher = weaker reporter binding; details: input ligand: none
Reported apparent KD of MS2 coat protein values for a set of sequences
Write it as a number; the unit µM goes unstated.

1) GAAAACGUAGGAUAUUAAUACUUAUACAUGAGGAUCACCCAUGUUUGGUGGGUCAAAGAAUGAGAAGGGCGAUGAA [EX5 #10] (Eterna round: R97, puzzle: Exclusion 5) = 0.376
2) CAAACAAGCGAAAGAUCCCACAUGAGGAUCACCCAUGUGCUCGUCUUAUAAGGUACUGUGACGAUAGUCACGGUACC [Mat - Sensor, turn-off var - Eli Mod - D79] (Eterna round: R97, puzzle: Sensor, turn-off variant 1) = 0.0452
3) UGACAGGCUAGACGAACAAACAUGAGGAUCACCCAUGUCAUUCCAUGUCUGCGUCAUAAGUAGAUGCUCGUAUAUCG [Eternabot (Original) Solution 33] (Eterna round: R97, puzzle: Sensor, turn-off variant 1) = 0.0181

Consider the additional sequence presented here.
Challenge: What value of apparent KD of MS2 coat protein has been recorded for this entry: ACCAUGUCAGGAUAUGCCCGUGUUCGAUCCGAGAAACACGAGCAGAAGGGACAUGAGGAUCACCCAUGUCCAAG [Eternabot (Original) Solution 1] (Eterna round: R97, puzzle: Exclusion 4)
Response given: 0.0162
